Catalogue of residual activity values
Study target: STK10 (human)
Experiment summary: radiometric filter-binding kinase assay, Kinase HotSpot
Run conditions: compound 0.5 µM; ATP 10 µM
Expressed in %, but write only the number.

Reference set, count: 4
COc1ccc(COc2ccc(Cc3cnc(N)nc3N)cc2OC)cc1    100
O=C(Nc1cccc(Nc2nccc(Nc3cccc(C(F)(F)F)c3)n2)c1)C1CC1    90.1
CC[n+]1c(/C=C/N(C)c2ccccc2)n(-c2ccccc2)c2ccc(-c3nc4ccccc4s3)cc21    101
O=c1cc(N2CCOCC2)oc2c1ccc1ccccc12    96.9

# ---- query compound ----
Prompt line: Would you mind telling me what residual activity value was observed for CCCC(=O)Oc1ccc2[nH]c(C(=O)c3cc4ccccc4[nH]3)cc2c1 ?
Response line: 94.3
